In this section, each of the molecules is paired with its reported Degradation H1975 # 28 DTC.
Biological target: EGFR Del19/T790M/C797S (H1975-clone #28) (Homo sapiens, UniProt P00533, T790M/C797S, form not given)
Sequence (P00533 with tags, fused parts or gaps DEL746-750/T790M/C797S, form open): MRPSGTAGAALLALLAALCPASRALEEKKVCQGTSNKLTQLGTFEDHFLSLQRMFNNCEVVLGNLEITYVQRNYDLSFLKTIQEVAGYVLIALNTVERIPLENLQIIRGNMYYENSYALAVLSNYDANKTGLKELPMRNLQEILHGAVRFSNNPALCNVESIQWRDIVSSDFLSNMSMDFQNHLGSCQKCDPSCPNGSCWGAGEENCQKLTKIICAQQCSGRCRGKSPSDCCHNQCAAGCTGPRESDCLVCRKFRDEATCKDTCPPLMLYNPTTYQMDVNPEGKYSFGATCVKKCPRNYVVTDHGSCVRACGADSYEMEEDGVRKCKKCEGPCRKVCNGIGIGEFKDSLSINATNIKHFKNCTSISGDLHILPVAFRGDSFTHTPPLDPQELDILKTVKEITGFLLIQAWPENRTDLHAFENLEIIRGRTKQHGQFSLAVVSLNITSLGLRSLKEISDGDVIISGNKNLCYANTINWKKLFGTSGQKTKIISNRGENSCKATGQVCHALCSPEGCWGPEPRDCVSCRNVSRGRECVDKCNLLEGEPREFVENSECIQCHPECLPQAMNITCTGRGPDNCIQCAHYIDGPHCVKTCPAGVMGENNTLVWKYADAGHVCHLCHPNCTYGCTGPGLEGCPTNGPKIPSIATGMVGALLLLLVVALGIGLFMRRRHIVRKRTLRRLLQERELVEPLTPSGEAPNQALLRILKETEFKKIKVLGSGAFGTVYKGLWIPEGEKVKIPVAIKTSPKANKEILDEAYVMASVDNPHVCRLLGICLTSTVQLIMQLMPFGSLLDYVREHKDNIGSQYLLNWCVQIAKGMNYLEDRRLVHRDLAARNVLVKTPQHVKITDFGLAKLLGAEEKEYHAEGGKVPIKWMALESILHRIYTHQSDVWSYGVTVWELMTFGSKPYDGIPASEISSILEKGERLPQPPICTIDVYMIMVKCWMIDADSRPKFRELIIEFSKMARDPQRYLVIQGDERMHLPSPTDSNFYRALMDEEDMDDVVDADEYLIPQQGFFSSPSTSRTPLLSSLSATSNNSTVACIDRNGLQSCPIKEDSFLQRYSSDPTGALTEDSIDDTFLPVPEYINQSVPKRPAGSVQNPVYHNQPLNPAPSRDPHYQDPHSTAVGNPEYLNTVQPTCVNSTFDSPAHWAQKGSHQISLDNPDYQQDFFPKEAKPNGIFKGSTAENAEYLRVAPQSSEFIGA
Experiment: EGFR degradation, HTRF total-EGFR assay, H1975-clone #28 (DTC)
Type: cell-based
Details: H1975-clone #28 Del19/T790M/C797S, 16 h treatment
Lab note: jot the number down without any unit.

In the examples that follow, each entry is paired with its recorded Degradation H1975 # 28 DTC.
Cc1cc2cc(n1)-c1cnn(C)c1OC[C@H]1C[C@@H](CN3/C(=N/C2=O)Nc2ccc(N4CCN([C@@H]5CCN(c6ccc(C7CCC(=O)NC7=O)nc6C)CC5(F)F)CC4)cc23)C1 (some centres unmarked): 85.6
Cc1cc2cc(n1)-c1cnn(C)c1OC[C@H]1C[C@@H](CN3/C(=N/C2=O)Nc2ccc(N4CCC(N5CCN(c6ccc(C7CCC(=O)NC7=O)nc6C)CC5)CC4)cc23)C1 (some centres unmarked): 79.8
COC[C@@H]1CN(c2ccc3c(c2)N2C[C@H]4C[C@@H](COc5c(cnn5C)-c5cc(cc(C)n5)C(=O)/N=C/2N3)C4)CCN1C1CCN(c2cc(F)c([C@H]3CCC(=O)NC3=O)c(F)c2)CC1: 89.8

Field request: Degradation H1975 # 28 DTC | item: Cc1cc2cc(n1)-c1cnn(C)c1OC[C@H]1C[C@@H](CN3/C(=N/C2=O)Nc2ccc(N4CCN(C5CN(C6CCN(c7cc(F)c([C@H]8CCC(=O)NC8=O)c(F)c7)CC6)C5)CC4)cc23)C1
80.2

Similarly, Cc1cc2cc(n1)-c1cnn(C)c1OC[C@H]1C[C@@H](CN3/C(=N/C2=O)Nc2ccc(N4C5CCC4CN(C4CCN(c6cnc(C7CCC(=O)NC7=O)cc6C)CC4)C5)cc23)C1 (some centres unmarked) ?
83.4

----------
Target: EGFR Del19/T790M/C797S (H1975-clone #28) (Homo sapiens, UniProt P00533, T790M/C797S, form not given)
Assay: EGFR degradation, HTRF total-EGFR assay, H1975-clone #28 (DTC)
Format: cell-based
Conditions: H1975-clone #28 Del19/T790M/C797S, 16 h treatment
Label Not satisfied if Degradation H1975 # 28 DTC falls below 80; label Satisfied in every other case.

Here are 5 molecules together with their reported answers.
Cc1cc2cc(n1)-c1cnn(C)c1OC[C@H]1C[C@@H](CN3/C(=N/C2=O)Nc2ccc(N4CCN(C5CCN(c6ccc(C7CCC(=O)NC7=O)nc6C)CC5)C[C@@H]4C)cc23)C1 (stereo partly shown): Satisfied
Cc1cc2cc(n1)-c1cnn(C)c1OC[C@H]1C[C@@H](CN3/C(=N/C2=O)Nc2ccc(N4CCN(C5CCN(c6ccc(C7CCC(=O)NC7=O)nc6C)CC5)CC45COC5)cc23)C1 (stereo partly shown): Satisfied
Cc1cc2cc(n1)-c1cnn(C)c1OC[C@H]1C[C@@H](CN3/C(=N/C2=O)Nc2ccc(N4CCN(C5CCN(c6ccc(C7CCC(=O)NC7=O)nc6)CC5)C(=O)C4)cc23)C1 (stereo partly shown): Not satisfied
Cc1cc2cc(n1)-c1cnn(C)c1OC[C@H]1C[C@@H](CN3/C(=N/C2=O)Nc2ccc(N4CCN(C5CN(C6CCN(c7ccc(C8CCC(=O)NC8=O)nc7C)CC6)C5)CC4)cc23)C1 (stereo partly shown): Satisfied
Cc1cc2cc(n1)-c1cnn(C)c1OC[C@H]1C[C@@H](CN3/C(=N/C2=O)Nc2ccc(N4CCN(C5CCN(c6ccc(C7CCC(=O)NC7=O)nc6C)CC5)C(=O)C4)cc23)C1 (stereo partly shown): Satisfied

Could you now look at the following molecule, please?
I'd appreciate it if you could say whether Cc1cc2cc(n1)-c1cnn(C)c1OC[C@H]1C[C@@H](CN3/C(=N/C2=O)Nc2ccc(N4CCC(N5CCN(c6cnc(C7CCC(=O)NC7=O)cc6C)CC5)CC4)cc23)C1 (stereo partly shown) has Degradation H1975 # 28 DTC at least equal to 80.
Satisfied

----------
In this section, each of the compounds is paired with its reported Degradation H1975 # 25-LTC.
Target: EGFR L858R/T790M/C797S (H1975-clone #25) (Homo sapiens, UniProt P00533, C797S/L858R/T790M)
Construct: expressed in transfected cells; host or cells: H1975 (clone #25), lentiviral transduction, endogenous EGFR knocked out
Sequence (P00533 25-1210 T790M/C797S/L858R): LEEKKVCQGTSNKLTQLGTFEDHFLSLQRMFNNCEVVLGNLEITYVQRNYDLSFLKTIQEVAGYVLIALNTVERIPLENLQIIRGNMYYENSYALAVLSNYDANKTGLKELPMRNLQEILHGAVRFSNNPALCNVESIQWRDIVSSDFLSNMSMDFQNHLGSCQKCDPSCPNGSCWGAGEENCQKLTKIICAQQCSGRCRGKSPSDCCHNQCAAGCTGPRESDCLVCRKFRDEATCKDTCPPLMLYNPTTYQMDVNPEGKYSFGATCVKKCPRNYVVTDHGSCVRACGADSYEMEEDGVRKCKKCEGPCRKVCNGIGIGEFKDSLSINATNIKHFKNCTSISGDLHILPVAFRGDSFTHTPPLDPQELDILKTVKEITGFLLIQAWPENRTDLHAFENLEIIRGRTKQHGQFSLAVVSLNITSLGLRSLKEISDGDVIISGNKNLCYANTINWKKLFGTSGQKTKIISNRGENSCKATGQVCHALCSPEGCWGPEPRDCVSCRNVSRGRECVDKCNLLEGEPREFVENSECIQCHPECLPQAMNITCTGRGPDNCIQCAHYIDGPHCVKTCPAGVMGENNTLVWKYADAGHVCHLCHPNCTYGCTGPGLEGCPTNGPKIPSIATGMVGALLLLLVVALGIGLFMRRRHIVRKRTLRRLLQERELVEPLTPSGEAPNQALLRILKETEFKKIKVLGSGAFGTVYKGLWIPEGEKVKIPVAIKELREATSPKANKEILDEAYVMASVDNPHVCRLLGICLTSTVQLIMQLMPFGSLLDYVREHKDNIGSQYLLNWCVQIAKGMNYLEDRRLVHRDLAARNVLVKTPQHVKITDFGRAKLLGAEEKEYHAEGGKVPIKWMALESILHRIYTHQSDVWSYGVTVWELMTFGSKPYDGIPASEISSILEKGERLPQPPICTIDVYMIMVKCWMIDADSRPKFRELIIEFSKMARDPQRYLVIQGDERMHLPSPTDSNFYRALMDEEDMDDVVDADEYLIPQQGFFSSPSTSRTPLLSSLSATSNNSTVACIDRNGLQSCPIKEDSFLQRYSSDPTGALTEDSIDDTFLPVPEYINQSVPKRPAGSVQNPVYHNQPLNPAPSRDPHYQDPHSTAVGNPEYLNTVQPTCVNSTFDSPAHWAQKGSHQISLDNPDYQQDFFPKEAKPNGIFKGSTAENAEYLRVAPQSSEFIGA
Experiment: EGFR degradation, HTRF total-EGFR assay, H1975-clone #25 (LTC)
Format: cell-based
Conditions: H1975-clone #25 L858R/T790M/C797S, 16 h treatment
Lab note: jot the number down without any unit.

In the examples that follow, each entry is paired with its recorded Degradation H1975 # 25-LTC.
Cc1cc2cc(n1)-c1cnn(C)c1OC[C@H]1C[C@@H](CN3/C(=N/C2=O)Nc2ccc(N4CCN([C@@H]5CCN(c6cnc(C7CCC(=O)NC7=O)cc6C)C[C@H]5F)CC4)cc23)C1 (stereo partly shown): 88.4
Cc1cc2cc(n1)-c1cnn(C)c1OC[C@H]1C[C@@H](CN3/C(=N/C2=O)Nc2ccc(N4CCN(C5CN(C6CCN(c7cnc(C8CCC(=O)NC8=O)cc7C)CC6)C5)CC4)cc23)C1 (stereo partly shown): 84.8
Cc1cc2cc(n1)-c1cnn(C)c1OC[C@H]1C[C@@H](CN3/C(=N/C2=O)Nc2ccc(N4CCN([C@@H]5CCN(c6ccc(C7CCC(=O)NC7=O)nc6C)C[C@H]5F)CC4)cc23)C1 (stereo partly shown): 89.9
Cc1cc2cc(n1)-c1cnn(C)c1OC[C@H]1C[C@@H](CN3/C(=N/C2=O)Nc2ccc(N4C[C@@H]5C[C@H]4CN5C4CCN(c5ccc(C6CCC(=O)NC6=O)nc5C)CC4)cc23)C1 (stereo partly shown): 90.6
Cc1cc2cc(n1)-c1cnn(C)c1OC[C@H]1C[C@@H](CN3/C(=N/C2=O)Nc2ccc(N4CCN(C5CCN(c6cnc(C7CCC(=O)NC7=O)c(F)c6)CC5)CC4)cc23)C1 (single isomer, unassigned): 81.4

Field request: Degradation H1975 # 25-LTC | item: Cc1cc2cc(n1)-c1cnn(C)c1OC[C@H]1C[C@@H](CN3/C(=N/C2=O)Nc2ccc(N(C)C4CC5(C4)CN(C4CCN(c6ccc(C7CCC(=O)NC7=O)nc6C)CC4)C5)cc23)C1 (stereo partly shown)
85.2

Similarly, Cc1cc2cc(n1)-c1cnn(C)c1OC[C@H]1C[C@@H](CN3/C(=N/C2=O)Nc2ccc(N4CCN(C5CCN(c6ccc(C7CCC(=O)NC7=O)nc6)CC5)C(=O)C4)cc23)C1 (stereo partly shown) ?
85.9

Similarly, Cc1cc2cc(n1)-c1cnn(C)c1OC[C@H]1C[C@@H](CN3/C(=N/C2=O)Nc2ccc(N4C[C@H]5C[C@@H]4CN5C4CCN(c5ccc(C6CCC(=O)NC6=O)nc5C)CC4)cc23)C1 (stereo partly shown) ?
87.1

Similarly, Cc1cc2cc(n1)-c1cnn(C)c1OC[C@H]1C[C@@H](CN3/C(=N/C2=O)Nc2ccc(N4CCN([C@H]5CCN(c6ccc(C7CCC(=O)NC7=O)nc6C)CC5(F)F)CC4)cc23)C1 (stereo partly shown) ?
86.8

Similarly, Cc1cc2cc(n1)-c1cnn(C)c1OC[C@H]1C[C@@H](CN3/C(=N/C2=O)Nc2ccc(CN4CCN(C(=O)C5CN(c6cc(F)c([C@H]7CCC(=O)NC7=O)c(F)c6)CC5(C)C)CC4)cc23)C1 (stereo partly shown) ?
86.6

----------
Molecular target: EGFR L858R/T790M/C797S (H1975-clone #25) (Homo sapiens, UniProt P00533, C797S/L858R/T790M)
Construct: expressed in transfected cells; host or cells: H1975 (clone #25), lentiviral transduction, endogenous EGFR knocked out
Experiment: EGFR degradation, HTRF total-EGFR assay, H1975-clone #25 (LTC)
Format: cell-based
Conditions: H1975-clone #25 L858R/T790M/C797S, 16 h treatment
EXPERIMENTAL ENDPOINT: Degradation H1975 # 25-LTC
Lab note: jot the number down without any unit.

Cc1cc2cc(n1)-c1cnn(C)c1OC[C@H]1C[C@@H](CN3/C(=N/C2=O)Nc2ccc(N4C5CCC4CN(C4CCN(c6cnc(C7CCC(=O)NC7=O)cc6C)CC4)C5)cc23)C1 (stereo partly drawn): 90.7
Cc1cc2cc(n1)-c1cnn(C)c1OC[C@H]1C[C@@H](CN3/C(=N/C2=O)Nc2ccc(N4CCN(C5CCN(c6cc(F)c([C@H]7CCC(=O)NC7=O)c(F)c6)CC5)[C@@H](CO)C4)cc23)C1: 90.5

Provide the documented Degradation H1975 # 25-LTC with EGFR L858R/T790M/C797S (H1975-clone #25) (Homo sapiens, UniProt P00533, C797S/L858R/T790M) as the system for Cc1cc2cc(n1)-c1cnn(C)c1OC[C@H]1C[C@@H](CN3/C(=N/C2=O)Nc2ccc(N4CCC(N5CCN(c6ccc(C7CCC(=O)NC7=O)nc6C)CC5)CC4)cc23)C1 (stereo partly drawn)
92.1
